EXPERIMENTAL SYSTEM: Cytochrome P450 11B1, mitochondrial (Homo sapiens, UniProt P15538)
Sequence (P15538 whole entry): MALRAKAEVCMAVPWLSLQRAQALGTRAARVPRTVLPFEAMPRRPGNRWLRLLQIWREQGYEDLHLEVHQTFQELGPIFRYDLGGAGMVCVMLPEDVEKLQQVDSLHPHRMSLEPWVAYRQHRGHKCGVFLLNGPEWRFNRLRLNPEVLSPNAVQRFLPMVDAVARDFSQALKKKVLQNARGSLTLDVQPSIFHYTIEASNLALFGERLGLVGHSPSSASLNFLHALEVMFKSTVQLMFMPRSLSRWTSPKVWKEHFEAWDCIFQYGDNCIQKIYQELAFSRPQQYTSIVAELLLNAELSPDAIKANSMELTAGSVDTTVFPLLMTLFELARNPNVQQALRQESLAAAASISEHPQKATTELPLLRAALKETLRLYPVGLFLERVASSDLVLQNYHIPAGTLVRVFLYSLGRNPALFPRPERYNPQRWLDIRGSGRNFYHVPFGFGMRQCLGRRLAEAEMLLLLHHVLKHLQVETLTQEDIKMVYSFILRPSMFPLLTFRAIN
TEST PROTOCOL: Inhibition of human CYP11B1 expressed in chinese hamster V79 cells
Format: cell-based
SETTINGS: read-out: IC50
MEASUREMENT LABEL: pIC50
The scale used: pIC50 is minus the common logarithm of the concentration in molar units.

Illustrative cases are given below, each with its answer.
{"columns": ["SMILES STR", "pIC50"],
 "data": [
  ["Nc1cccc(Cn2ccnc2)c1", 6.41],
  ["Clc1cccc(Cn2ccnc2)c1", 6.82],
  ["COC(=O)CCc1cncn1Cc1ccc(Cl)cc1", 6.91],
  ["COC(=O)CCc1cncn1Cc1ccc(OC)cc1", 6.95],
  ["N#Cc1ccc(Cn2cncc2-c2ccccc2)cc1", 7.55]
]}

Ask | Report pIC50 for N#Cc1ccc(Cn2cncc2-c2ccccc2F)cc1 please.
Reply | 7.70

Ask | Report pIC50 for N#Cc1ccc(Cn2ccnc2)cc1 please.
Reply | 6.43

Ask | Report pIC50 for Cc1cccc(-c2cncn2Cc2ccc(C#N)cc2)c1 please.
Reply | 8.21

Ask | Report pIC50 for Clc1ccc(Cn2cncc2-c2ccccc2)cc1 please.
Reply | 7.60

* * *

EXPERIMENTAL SYSTEM: Cytochrome P450 11B2, mitochondrial (Homo sapiens, UniProt P19099)
TEST PROTOCOL: Inhibition of human CYP11B2 expressed in chinese hamster V79 cells
Type: cell-based
SETTINGS: read-out: IC50
# maps each entry to its pIC50
The scale used: pIC50 is minus the common logarithm of the concentration in molar units.

Illustrative cases are given below, each with its answer.
{"columns": ["SMILES STR", "NUMERIC READOUT"],
 "data": [
  ["Cc1ccc(-c2cncn2Cc2ccc(C#N)cc2)cc1", 6.93],
  ["N#Cc1ccc(Cn2cncc2-c2ccncc2)cc1", 6.39],
  ["OCc1cccc(Cn2ccnc2)c1", 5.93]
]}

Ask | Report pIC50 for COC(=O)CCc1cncn1Cc1ccccc1 please.
Reply | 6.71

Ask | Report pIC50 for N#Cc1ccc(Cn2cncc2-c2ccc(F)cc2)cc1 please.
Reply | 7.60

Ask | Report pIC50 for Cc1cncn1Cc1ccc(C#N)cc1 please.
Reply | 7.92

Ask | Report pIC50 for COc1ccc(Cn2cncc2-c2ccccc2)cc1 please.
Reply | 7.85

Ask | Report pIC50 for Brc1ccc(Cn2cncc2-c2ccccc2)cc1 please.
Reply | 8.29

Ask | Report pIC50 for OCCCc1cncn1Cc1ccc(F)cc1 please.
Reply | 7.80

* * *

# maps each entry to its pIC50
EXPERIMENTAL SYSTEM: Cytochrome P450 11B2, mitochondrial (Homo sapiens)
Sequence (P19099 whole entry): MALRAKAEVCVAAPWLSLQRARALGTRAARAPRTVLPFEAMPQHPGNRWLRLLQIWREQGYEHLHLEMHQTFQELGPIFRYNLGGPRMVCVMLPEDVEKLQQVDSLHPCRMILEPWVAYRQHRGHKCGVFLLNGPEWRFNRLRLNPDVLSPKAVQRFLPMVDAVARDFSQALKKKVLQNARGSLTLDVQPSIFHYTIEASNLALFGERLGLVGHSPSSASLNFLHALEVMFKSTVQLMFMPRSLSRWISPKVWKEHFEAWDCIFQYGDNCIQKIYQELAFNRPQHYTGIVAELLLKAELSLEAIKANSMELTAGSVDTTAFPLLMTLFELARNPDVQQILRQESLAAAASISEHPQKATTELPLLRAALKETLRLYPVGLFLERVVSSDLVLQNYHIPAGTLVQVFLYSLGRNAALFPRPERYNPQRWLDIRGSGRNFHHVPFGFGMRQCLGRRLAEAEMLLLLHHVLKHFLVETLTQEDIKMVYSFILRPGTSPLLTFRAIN
TEST PROTOCOL: Inhibition of human CYP11B2 expressed in chinese hamster V79 cells
Assay type: cell-based
SETTINGS: read-out: IC50
The scale used: pIC50 is minus the common logarithm of the concentration in molar units.

Illustrative cases are given below, each with its answer.
{"columns": ["MOLECULE", "EXPERIMENTAL SYSTEM", "pIC50"],
 "data": [
  ["N#Cc1ccc(Cn2cncc2-c2ccccc2F)cc1", "Cytochrome P450 11B2, mitochondrial (Homo sapiens)", 8.64],
  ["Brc1cccc(Cn2ccnc2)c1", "Cytochrome P450 11B2, mitochondrial (Homo sapiens)", 6.44],
  ["COC(=O)c1cncn1Cc1ccc(C#N)cc1", "Cytochrome P450 11B2, mitochondrial (Homo sapiens)", 8.15]
]}

Ask | Report pIC50 for COC(=O)CCc1cncn1Cc1ccc(F)cc1 please.
Reply | 7.30

* * *

EXPERIMENTAL SYSTEM: Cytochrome P450 11B1, mitochondrial (Homo sapiens, UniProt P15538)
TEST PROTOCOL: Inhibition of human CYP11B1 expressed in chinese hamster V79 cells
Format: cell-based
SETTINGS: read-out: IC50
MEASUREMENT LABEL: IC50 (nM)
// units = nM; emit number, no label

{"columns": ["SMILES STR", "NUMERIC READOUT"],
 "data": [
  ["Cc1ccccc1-c1cncn1Cc1ccc(C#N)cc1", 5.7],
  ["OCc1cccc(Cn2ccnc2)c1", 206],
  ["Fc1ccc(Cn2cncc2-c2ccccc2)cc1", 16],
  ["Fc1cccc(Cn2ccnc2)c1", 206]
]}

Ask | Report IC50 for Brc1cccc(Cn2ccnc2)c1 please.
Reply | 143

* * *

EXPERIMENTAL SYSTEM: Cytochrome P450 11B2, mitochondrial (Homo sapiens, UniProt P19099)
TEST PROTOCOL: Inhibition of human CYP11B2 expressed in chinese hamster V79 cells
Type: cell-based
SETTINGS: read-out: IC50
pIC50: −log10 of the molar value.
Lab note: compare pIC50 against 8. Equal or greater, write True. Smaller, write False.

Ask | Quick check: does Clc1ccc(Cn2ccnc2)cc1 have pIC50 greater than or equal to 8?
Reply | False

Ask | Quick check: does OCCCc1cncn1Cc1ccccc1 have pIC50 greater than or equal to 8?
Reply | False

Ask | Quick check: does COc1ccc(Cn2cncc2CCCO)cc1 have pIC50 greater than or equal to 8?
Reply | False

Ask | Quick check: does N#Cc1ccc(Cn2ccnc2)cc1 have pIC50 greater than or equal to 8?
Reply | False

Ask | Quick check: does Clc1cccc(Cn2ccnc2)c1 have pIC50 greater than or equal to 8?
Reply | False

Ask | Quick check: does Nc1cccc(Cn2ccnc2)c1 have pIC50 greater than or equal to 8?
Reply | False

Ask | Quick check: does COC(=O)CCc1cncn1Cc1ccc(OC)cc1 have pIC50 greater than or equal to 8?
Reply | False

Ask | Quick check: does CCOC(=O)c1cncn1[C@H](C)c1ccccc1 [ETOMIDATE] have pIC50 greater than or equal to 8?
Reply | True

Ask | Quick check: does N#Cc1ccc(Cn2cncc2CO)cc1 have pIC50 greater than or equal to 8?
Reply | False

Ask | Quick check: does Clc1ccc(Cn2cncc2-c2ccccc2)cc1 have pIC50 greater than or equal to 8?
Reply | True

Ask | Quick check: does Brc1ccc(Cn2ccnc2)cc1 have pIC50 greater than or equal to 8?
Reply | False

Ask | Quick check: does OCc1ccc(Cn2ccnc2)cc1 have pIC50 greater than or equal to 8?
Reply | False

Ask | Quick check: does Nc1ccc(Cn2ccnc2)cc1 have pIC50 greater than or equal to 8?
Reply | False

Ask | Quick check: does N#Cc1cccc(Cn2ccnc2)c1 have pIC50 greater than or equal to 8?
Reply | False

* * *

# maps each entry to its pIC50
EXPERIMENTAL SYSTEM: Cytochrome P450 11B2, mitochondrial (Homo sapiens, UniProt P19099)
TEST PROTOCOL: Inhibition of human CYP11B2 expressed in chinese hamster V79 cells
Assay type: cell-based
SETTINGS: read-out: IC50
The scale used: pIC50 is minus the common logarithm of the concentration in molar units.

{"columns": ["SMILES STR", "EXPERIMENTAL SYSTEM", "NUMERIC READOUT"],
 "data": [
  ["OCCCc1cncn1Cc1ccc(Br)cc1", "Cytochrome P450 11B2, mitochondrial (Homo sapiens, UniProt P19099)", 8.21],
  ["c1ccc(Cn2cncc2-c2ccccc2)cc1", "Cytochrome P450 11B2, mitochondrial (Homo sapiens, UniProt P19099)", 7.96]
]}

Ask | Report pIC50 for Fc1ccc(Cn2cncc2-c2ccccc2)cc1 please.
Reply | 7.96

Ask | Report pIC50 for Fc1cccc(Cn2ccnc2)c1 please.
Reply | 6.09

Ask | Report pIC50 for Cc1ccccc1-c1cncn1Cc1ccc(C#N)cc1 please.
Reply | 8.43

Ask | Report pIC50 for N#Cc1ccc(Cn2cncc2Br)cc1 please.
Reply | 7.64
